Tested on: K562
Assay: NCI tumour cell line growth inhibition, 48 h
Active and inactive are the calls of the source. Rule as the data show it: active = GI50 up to about 1.1 µM and inactive = higher.

[
  {
    "molecule": "COc1cc2c(cc1OC)-c1c(cnn1C1OC(COC(C)=O)C(OC(C)=O)C(OC(C)=O)C1OC(C)=O)CC2 (centres undefined)",
    "GI50": "33 µM (inactive)"
  },
  {
    "molecule": "CCOC(=O)c1c(N2CCOCC2)[nH]c(=O)c(C(c2ccc(Cl)c([N+](=O)[O-])c2)c2c(O)c(C(=O)OCC)c(N3CCOCC3)[nH]c2=O)c1O",
    "GI50": "30.3 µM (inactive)"
  },
  {
    "molecule": "COC(=O)c1c(C)cccc1C1CN=NC12Cc1ccc(C)cc1C2=O (centres undefined)",
    "GI50": "29.8 µM (inactive)"
  },
  {
    "molecule": "Cc1ccc2c(O)cc(-c3cc(C)sc3C)nc2n1",
    "GI50": "2.94 µM (inactive)"
  },
  {
    "molecule": "O=C(O)CN(CCNC(=O)OCC1c2ccccc2-c2ccccc21)CCNC(=O)OCC1c2ccccc2-c2ccccc21",
    "GI50": "19 µM (inactive)"
  },
  {
    "molecule": "Cc1ccc2oc(=O)c(C(=O)Nc3nc(C45CC6CC(CC(C6)C4)C5)cs3)cc2c1",
    "GI50": "> 100 µM (inactive)"
  },
  {
    "molecule": "CCCc1ccc(OCC(=O)N/N=C/c2c(-c3ccccc3)[nH]c3ccccc23)cc1",
    "GI50": "3.99 µM (inactive)"
  },
  {
    "molecule": "CC(CCCCNC(=O)OC(C)(C)C)NC(=O)NC(C)CCCCNC(=O)OC(C)(C)C (centres undefined)",
    "GI50": "83.2 µM (inactive)"
  },
  {
    "molecule": "O=C1OC(c2ccccc2)=N/C1=C\\c1ccc(Cl)cc1",
    "GI50": "> 100 µM (inactive)"
  }
]

---

Tested on: HCT-116
Assay: NCI tumour cell line growth inhibition, 48 h
Active and inactive are the calls of the source. Rule as the data show it: active = GI50 up to about 1.1 µM and inactive = higher.
Measured GI50 accompanies every entry in the list below.

[
  {
    "compound": "COc1ccc(C2CCc3nc4nc(N)nc(N)c4cc3C2)cc1 (stereo unspecified)",
    "GI50": "26 µM (inactive)"
  },
  {
    "compound": "O=C1C(Cl)C(c2cc3cc(Br)ccc3nc2Cl)N1c1ccc(Cl)cc1 (stereo unspecified)",
    "GI50": "5.31 µM (inactive)"
  },
  {
    "compound": "O=C1N[C@H]2C(=O)c3c(Cl)sc(Cl)c3[C@H]2O1",
    "GI50": "3.66 µM (inactive)"
  },
  {
    "compound": "C[C@@H](O)CCC(=O)c1ccoc1",
    "GI50": "> 100 µM (inactive)"
  },
  {
    "compound": "COc1ccc(/C=C2\\CCCCCC2=O)cc1",
    "GI50": "> 100 µM (inactive)"
  },
  {
    "compound": "CC(=O)Nc1ccc(-c2nc3ccccc3s2)cc1",
    "GI50": "86.7 µM (inactive)"
  },
  {
    "compound": "Cc1cn(C2CC(n3cncn3)C(C(C)O)O2)c(=O)[nH]c1=O (stereo unspecified)",
    "GI50": "> 100 µM (inactive)"
  },
  {
    "compound": "COC1=CC(=O)C2C(C1=O)C(c1ccc(Cl)cc1)[C@@H]2C (stereo partly specified)",
    "GI50": "15.7 µM (inactive)"
  },
  {
    "compound": "O=c1ccn(CC2(CO)CC(Cc3ccccc3)C2)c(=O)[nH]1 (stereo unspecified)",
    "GI50": "> 100 µM (inactive)"
  },
  {
    "compound": "O=NN(CCCl)C(=O)N[C@H]1CC[C@@H](C(=O)O)CC1",
    "GI50": "> 100 µM (inactive)"
  },
  {
    "compound": "CCSc1nc(N)c2c(-c3ccc(OC)c(OC)c3)c3c(nc2n1)CCCC3",
    "GI50": "> 100 µM (inactive)"
  }
]

---

System: HOP-92
Assay: NCI tumour cell line growth inhibition, 48 h
Calls of active or inactive are those of the source. No stated cut-off is given here; in the data, active = GI50 up to about 1.1 µM and inactive = higher.

[
  {
    "compound": "CC1(C)O[C@@H]2C[C@H]3[C@@H]4C[C@H](F)C5=CC(=O)C=C[C@]5(C)[C@@]4(F)[C@@H](O)C[C@]3(C)[C@]2(C(=O)CO)O1 [FLUOCINOLONE ACETONIDE]",
    "GI50": "> 100 µM (inactive)"
  },
  {
    "compound": "COP(=O)(OC)[C@H](O)[C@H]1C[C@@H]1c1ccccc1",
    "GI50": "17.4 µM (inactive)"
  },
  {
    "compound": "C[C@H](CCC(=O)NCCS(=O)(=O)O)[C@H]1CC[C@H]2[C@@H]3CC[C@@H]4C[C@H](O)CC[C@]4(C)[C@H]3CC[C@]12C",
    "GI50": "> 100 µM (inactive)"
  },
  {
    "compound": "Cc1cc2c(=O)cc(-c3cccs3)oc2c(C(=O)O)c1C",
    "GI50": "> 100 µM (inactive)"
  }
]

---

Tested on: HOP-92
Assay: NCI tumour cell line growth inhibition, 48 h
Active and inactive are the calls of the source. Rule as the data show it: active = GI50 up to about 1.1 µM and inactive = higher.
Labels: active, inactive

[
  {
    "molecule": "Cc1cc(N(CCC#N)CCC#N)ccc1/C=N\\c1ccc(C(=O)NN2C(=O)/C(=C/c3ccc(N(CCC#N)CCC#N)cc3)N=C2c2cc([N+](=O)[O-])ccc2Cl)cc1",
    "label-value": "inactive"
  },
  {
    "molecule": "CO[C@H]1C[C@](C)(O)Cc2cc3c(c(O)c21)C(=O)c1c(O)cc2c(c1C3=O)O[C@@H]1O[C@@]2(C)[C@H](O)[C@@H](N(C)C)[C@@H]1O",
    "label-value": "active"
  },
  {
    "molecule": "O=C(NO)c1ccc(OCc2ccccc2)cc1",
    "label-value": "inactive"
  },
  {
    "molecule": "COC(=O)[C@@H]1[C@H]2CC[C@]3(C)[C@@H](OC(C)=O)CC[C@H]3[C@@H]2CC[C@H]1C1(C)SCCS1",
    "label-value": "inactive"
  },
  {
    "molecule": "Cc1c(O)c(OC2OC(CO)C(O)C(O)C2O)cc2c1C=C[C@@H]1[C@@]2(C)C(=O)C[C@]2(C)[C@@H]([C@@](C)(O)C(O)/C=C/C(C)(C)O)[C@H](O)C[C@@]12C (some centres not stated)",
    "label-value": "inactive"
  },
  {
    "molecule": "O=c1[nH]c(=O)n([C@H]2C[C@H](O)[C@@H](CO)O2)cc1Br",
    "label-value": "inactive"
  },
  {
    "molecule": "COc1ccc(C(=O)/C=C/c2ccc(OCC#N)cc2)cc1",
    "label-value": "inactive"
  }
]

---

Test system: LOX IMVI
Assay: NCI tumour cell line growth inhibition, 48 h
Activity calls are given as the source filed them. Cut-off read from the data, not from the text of the source: active = GI50 up to about 1.1 µM and inactive = higher. Where a SMILES comes first, the peptide text is derived from it. [ ]: non-standard residue; d: D form. The star is where a group is joined. ξ: configuration not given here. ξD = NC(CC(=O)O)C(=O)O; Ac3c = NC1(C(=O)O)CC1; Boc = CC(C)(C)OC(=O)*; OBn = c1ccc(CO*)cc1
Labels: TRUE = active, FALSE = inactive

[
  {
    "compound": "CC1OC(n2cc(Cl)c(=O)[nH]c2=O)C=C(OC(=O)c2ccccc2)C1=O (stereo unspecified)",
    "label-value": "FALSE"
  },
  {
    "compound": "COc1cc(OC)cc(-n2c(N)c(-c3nc4ccccc4s3)c3ccc([N+](=O)[O-])cc3c2=O)c1",
    "label-value": "FALSE"
  },
  {
    "compound": "COC(=O)C1(NC(=O)C(CC(=O)OCc2ccccc2)NC(=O)OC(C)(C)C)CC1 (stereo unspecified) (Boc-[ξD](OBn)-[Ac3c]-OMe)",
    "label-value": "FALSE"
  },
  {
    "compound": "CC(C)COP(=O)(OCC(C)C)C(NS(=O)(=O)c1ccccc1)(C(F)(F)F)C(F)(F)F",
    "label-value": "FALSE"
  },
  {
    "compound": "Cc1cc(C)c2c(-c3ccccc3)cc(=O)[nH]c2c1",
    "label-value": "FALSE"
  },
  {
    "compound": "O=C1c2ccccc2C(=O)c2c1ccc1c3ccccc3n(Cc3ccccc3)c21",
    "label-value": "FALSE"
  },
  {
    "compound": "CCOP(=O)(OCC)OC1CC(n2cnc3c(N(CC)CC)ncnc32)OC1CO[Si](C)(C)C(C)(C)C (stereo unspecified)",
    "label-value": "FALSE"
  },
  {
    "compound": "CN(C)CC1CN(C(=O)Nc2ccccc2)C(=N)O1 (stereo unspecified)",
    "label-value": "FALSE"
  },
  {
    "compound": "c1ccc2c(c1)c1c(n2CCOCCN2CCCC2)CCCC1",
    "label-value": "FALSE"
  },
  {
    "compound": "NS(=O)(=O)c1cc2c(cc1Cl)NC(/C(=N/NC(=O)c1ccncc1)C1C(=O)NC(=O)NC1=O)=NS2(=O)=O",
    "label-value": "FALSE"
  },
  {
    "compound": "[N-]=[N+]=Nc1c(C=O)c(=O)n2c3c(cccc13)CCC2",
    "label-value": "FALSE"
  },
  {
    "compound": "O=c1cc(-c2ccccc2)[nH]c2cc(F)c(F)cc12",
    "label-value": "TRUE"
  },
  {
    "compound": "COC(=O)C1=C(O)C(C(=O)OC)[C@]2(O)[C@@H](C(=O)OC)[C@H]1C[C@@H](c1ccccc1)[C@@H]2C(=O)OC (stereo partly specified)",
    "label-value": "FALSE"
  },
  {
    "compound": "OC1c2ccccc2CC12Cc1ccccc1C2 (stereo unspecified)",
    "label-value": "FALSE"
  },
  {
    "compound": "O=C(NC/C(Cl)=C/Cl)Nc1c2ccccc2nc2ccccc12",
    "label-value": "FALSE"
  },
  {
    "compound": "Cc1ccc(S(=O)(=O)NC(=O)C#CCOC2CCCCO2)cc1 (stereo unspecified)",
    "label-value": "FALSE"
  },
  {
    "compound": "Cc1nc2c(cc1OCc1ccccc1)C(=O)C1=C(C2=O)C2OC(=O)CC2OC1(C)C (stereo unspecified)",
    "label-value": "TRUE"
  },
  {
    "compound": "CCSC1=N/C(=C\\c2ccco2)C(Nc2ccc(C)cc2)=N1",
    "label-value": "FALSE"
  },
  {
    "compound": "CNC(=O)C1CCCN1C(=O)C(Cc1c[nH]cn1)NC(=O)C1CCC(=O)N1 (stereo unspecified)",
    "label-value": "FALSE"
  },
  {
    "compound": "Brc1ccc2c(c1)C1(c3cc(Br)ccc3-2)c2cc(Br)ccc2-c2ccc(Br)cc21",
    "label-value": "FALSE"
  },
  {
    "compound": "O=C1C(C(O)(C(F)(F)F)C(F)(F)F)CCC1C(O)(C(F)(F)F)C(F)(F)F (stereo unspecified)",
    "label-value": "TRUE"
  },
  {
    "compound": "CCOC(=O)c1nc2ccccc2nc1Oc1cc(OC)c(OC)c(OC)c1",
    "label-value": "FALSE"
  },
  {
    "compound": "c1ccc(/N=c2/sc3ccccc3s/c2=N/c2ccccc2)cc1",
    "label-value": "FALSE"
  },
  {
    "compound": "O=C(O)C1=C(C(=O)O)N(c2ccncc2)C(c2ccco2)=CC1c1ccccc1[N+](=O)[O-] (stereo unspecified)",
    "label-value": "FALSE"
  },
  {
    "compound": "O=C1NC(c2cccc3ccccc23)Nc2ccc(Cl)cc21 (stereo unspecified)",
    "label-value": "TRUE"
  },
  {
    "compound": "CN(C)c1c(C2CC(O)C(CO)O2)c(=O)c1=O (stereo unspecified)",
    "label-value": "FALSE"
  },
  {
    "compound": "O=C(NNc1ccccc1)/C(=C/c1ccc2c(c1)OCO2)NC(=O)c1ccccc1",
    "label-value": "FALSE"
  },
  {
    "compound": "CC(C)(C)c1ccc2c(c1)C#Cc1cc3c(cc1OCCCO2)C#Cc1cc(C(C)(C)C)ccc1OCCCO3",
    "label-value": "FALSE"
  },
  {
    "compound": "O=C1c2nc3n(c2C(=O)c2c1nc1n2CCC1)CCC3",
    "label-value": "FALSE"
  },
  {
    "compound": "CCCc1ccc(OCC(=O)N/N=C/c2c(-c3ccccc3)[nH]c3ccccc23)cc1",
    "label-value": "FALSE"
  },
  {
    "compound": "O=c1c2ccc(Cl)cc2oc2c(CNc3ccc(S(=O)(=O)Nc4ncccn4)cc3)cccc12",
    "label-value": "FALSE"
  },
  {
    "compound": "NCCCN(CCCN)CCc1cn(C(=O)c2ccccc2)cn1",
    "label-value": "FALSE"
  },
  {
    "compound": "N#Cc1nc(Nc2ccc([N+](=O)[O-])cc2)sc1N",
    "label-value": "FALSE"
  },
  {
    "compound": "COc1ccccc1C1=C2C(=O)N(C)C(c3ccccc3OC)=C2C(=O)N1C",
    "label-value": "FALSE"
  },
  {
    "compound": "CC1CCC(O)C(C(O)CC2CC(=O)N(C)C(=O)C2)C1 (stereo unspecified)",
    "label-value": "FALSE"
  },
  {
    "compound": "O=C(CCC1CCCCN1)Nc1ccc2c(c1)C(=O)c1ccc(NC(=O)CCN3CCCCC3)cc1C2=O (stereo unspecified)",
    "label-value": "FALSE"
  },
  {
    "compound": "Nc1c(S(=O)(=O)O)cc(Nc2cccc(S(N)(=O)=O)c2)c2c1C(=O)c1ccccc1C2=O",
    "label-value": "FALSE"
  },
  {
    "compound": "CN1C2C=C(c3ccccc3)CC1CC2 (stereo unspecified)",
    "label-value": "FALSE"
  },
  {
    "compound": "Cc1cccc(C2ON=C(c3ccccc3)N2C23CC4CC(CC(C4)C2)C3)c1 (stereo unspecified)",
    "label-value": "FALSE"
  },
  {
    "compound": "COC(=O)C(NC(=O)CSc1nnc(COc2ccc(Cl)cc2)n1-c1ccccc1)C(C)C (stereo unspecified)",
    "label-value": "FALSE"
  },
  {
    "compound": "CC(=O)CC1CCC(=O)/C=C/C(=O)OC(CC(C)=O)CCC(=O)/C=C/C(=O)O1 (stereo unspecified)",
    "label-value": "FALSE"
  }
]

# credit: ChEMBL document CHEMBL1201862
